test: Growth inhibition of human gastric cancer cells after 72 hrs by sulforhodamine B assay
Type: functional
conditionsUsed: Cancer cell lines, Stomach, pooled result: one value given for 3 cell lines, strains, targets or settings
Each record is given Y if its reported GI50 is strictly below 0.1 µM. Records at or above 0.1 µM are given N.

Sample answers from the record:
>>> category("O=C(O)c1ccc2[nH]c(CNc3ccccn3)nc2c1")
"N"
>>> category("O=C(O)c1ccc2[nH]c(CNc3nccs3)nc2c1")
"N"
>>> category("COc1cc([C@@H]2c3cc4c(cc3[C@@H](O[C@@H]3O[C@@H]5CO[C@@H](C)O[C@H]5[C@H](O)[C@H]3O)[C@H]3COC(=O)[C@H]23)OCO4)cc(OC)c1O [ETOPOSIDE]")
"N"

Record COc1cccc2c1C(=O)c1c(O)c3c(c(O)c1C2=O)C[C@@](O)(C(=O)CO)C[C@@H]3O[C@H]1C[C@H](N)[C@H](O)[C@H](C)O1 [DOXORUBICIN] : is its GI50 strictly below 0.1 µM?
Y

Record CCc1c2c(nc3ccc(O)cc13)-c1cc3c(c(=O)n1C2)COC(=O)[C@]3(O)CC [7-ETHYL-10-HYDROXYCAMPTOTHECIN] : is its GI50 strictly below 0.1 µM?
Y

Record "O=C(O)c1ccc2[nH]c(CNc3nc4ccccc4[nH]3)nc2c1" : is its GI50 strictly below 0.1 µM?
N

Record "O=C(O)c1ccc2[nH]c(CNc3ccncc3)nc2c1" : is its GI50 strictly below 0.1 µM?
N

Record "O=C(O)c1ccc2[nH]c(CCl)nc2c1" : is its GI50 strictly below 0.1 µM?
N

Record "O=C(O)c1ccc2[nH]c(C[n+]3ccccc3)nc2c1.[Cl-]" : is its GI50 strictly below 0.1 µM?
Y
